Entries and their GI50
- Test system: A498 renal
- test: NCI tumour cell line growth inhibition, 48 h
valueType: GI50

| smilesText | valueType | obsValue |
| --- | --- | --- |
| [Cu+2].[Cu+2].[O-]c1ccccc1C=Nc1ccccc1[O-].[O-]c1ccccc1C=Nc1ccccc1[O-] | GI50 | 14.4 µM |
| O=C1C(=O)c2ccc(Br)cc2-c2cc(Br)ccc21 | GI50 | > 28.1 µM |
| CC1(C)CCC(S(=O)(=O)c2ccc3c(c2)/C(=N\O)c2cc(S(=O)(=O)N4CCC(O)(c5cccc(C(F)(F)F)c5)CC4)ccc2-3)CC1 | GI50 | 1.69 µM |
| c1ccc2c(c1)O[As](O[As]1Oc3ccccc3O1)O2 | GI50 | 1.6 µM |
| COc1ccc(-c2cc3cccc(OC)c3c(=O)o2)cc1OC | GI50 | 81.7 µM |

----------
Entries and their TGI
- System: LXFL 529 NSCLC
- test: NCI tumour cell line growth inhibition, 48 h
valueType: TGI

| compound | obsValue |
| --- | --- |
| COc1nc(OC)c2c(=O)oc(-c3ccccc3)cc2n1 | > 100 µM |
| Cc1c(Cl)cccc1NC(=O)CC1Sc2ccccc2NC1=O (configuration not stated) | > 100 µM |
| O=C(NC1CCCCC1)c1c(O)[nH]c(=S)[nH]c1=O | > 100 µM |
| OCC(O)COc1ccc(Br)cc1 (configuration not stated) | > 100 µM |
| CC(NC(=O)c1ccccc1)C(=O)N(Cc1ccccc1)Cc1ccccc1 (configuration not stated) | 53.4 µM |
| CCCCCCC1CCC2CCCC(C)N12 (configuration not stated) | > 10 µM |
| COc1cc2c(cc1O)[C@H](C)C(c1ccc(Cl)cc1)O2 (some centres not stated) | 34.7 µM |

----------
- Test system: NCI-H23 lung
- test: NCI tumour cell line growth inhibition, 48 h; in the data active means GI50 below about 0.43 µM; inactive means the rest
Outcomes: class 1 = active, class 0 = inactive

| compound | group |
| --- | --- |
| C=C1CC2CC[C@@]34C[C@@H]5O[C@@H]6C(O[C@H]7CC[C@H](CC(=O)OC8[C@@H](C)C9OC%10C[C@]%11(C[C@@H]%12O[C@@]%13(C[C@@H](C)[C@@H]%12O%11)C[C@H](C)[C@@H]%11OC%12CC(C(O)CO)OC%12C[C@@H]%11O%13)OC%10CC9O[C@H]8C[C@H]8O[C@@H](CC[C@@H]1O2)C[C@@H](C)C8=C)O[C@@H]7[C@@H]6O3)C5O4 (stereo partly specified) | class 1 |
| CO/N=C(\c1ccccc1)c1cnn(-c2ccccc2)c1N | class 0 |
| COc1ccccc1-c1cc2c3c(nc4ccccc42)C(=O)c2cccnc2-c3n1 | class 0 |
| COc1ccc(-c2cc3cccc(OC)c3c(=O)o2)cc1OC | class 0 |
| CS(=O)(=O)c1nccc(-c2c(-c3cccc(OCc4ccc(F)cc4)c3)nc3sccn23)n1 | class 0 |
| Cc1ccc(S(=O)(=O)N(C)C)cc1[N+](=O)[O-] | class 0 |

----------
- Test system: MCF7 breast
- test: NCI tumour cell line growth inhibition, 48 h; in the data active means GI50 below about 0.43 µM; inactive means the rest
Outcomes: active, inactive

| compound | group |
| --- | --- |
| COc1ccc2c(c1)Oc1nc(N)c(C#N)c(N)c1C2Sc1ccc(SC)cc1 (stereo not given) | inactive |
| O=C(Cn1ccnc1[N+](=O)[O-])N(CCO)CCO | inactive |
| C[C@@H]1O[C@@H](O[C@H]2C[C@@H](O)[C@]3(CO)C4C(CC[C@]3(O)C2)[C@@]2(O)CC[C@H](C3=CC(=O)OC3)[C@@]2(C)C[C@H]4O)[C@H](O)[C@H](O)[C@H]1O (stereo not given in full) | active |
| COC1=CC(c2ccc[nH]2)=N/C1=C\c1[nH]c(C)c(C(=O)CCC(=O)Oc2ccc3c(c2)CCC2C3CC[C@]3(C)C(=O)CC[C@@H]23)c1C (stereo not given in full) | inactive |
| Cc1nc2sc(C(=O)Nc3cccc4ccccc34)c(N)c2cc1C(C)O (stereo not given) | active |
